Test Name: PK of formulations with varying concentrations of LD-Tyr and CD (Example 16)
Assay type: in vivo, domestic pig
Test Settings: female, pig, plasma, sc, 2700 mg/day, analyte LD-Tyr; LD-Tyr/CD 30/[…] w/v, daily dose 2700/135 mg; 18-hour continuous SC infusion; n = 5
Where a SMILES comes first, the peptide text is derived from it. [ ]: non-standard residue; d: D form. Dopa = N[C@@H](Cc1ccc(O)c(O)c1)C(=O)O
Endpoint: AUC(0-t) (ng·h/mL)

>  <Compound>
N[C@@H](Cc1ccc(O)c(O)c1)C(=O)N[C@@H](Cc1ccc(O)cc1)C(=O)O [LD-Tyr] (H-[Dopa]-Tyr-OH)

>  <Scale Unit>
ng·h/mL

>  <Value Observed>
13500

$$$$

----------
Test Name: PK following bolus and 2-hr continuous SC administration of 30% LD-Tyr (Example 18)
Assay type: in vivo, domestic pig
Test Settings: female, pig, plasma, sc, analyte LD-Tyr; 30/1 % w/v; bolus volume 1.7 mL, bolus dose 510/17 mg, daily dose 810/27 mg; bolus and 2-hr continuous SC administration
Where a SMILES comes first, the peptide text is derived from it. [ ]: non-standard residue; d: D form. Dopa = N[C@@H](Cc1ccc(O)c(O)c1)C(=O)O

>  <Compound>
N[C@@H](Cc1ccc(O)c(O)c1)C(=O)N[C@@H](Cc1ccc(O)cc1)C(=O)O [LD-Tyr] (H-[Dopa]-Tyr-OH)

>  <Tmax>
1.2 h

$$$$

----------
Test Name: PK following bolus and 2-hr continuous SC administration of 30% LD-Tyr (Example 18)
Format: in vivo, domestic pig
Test Settings: female, pig, plasma, sc, analyte LD-Tyr; 30/1 % w/v; bolus volume 1.2 mL, bolus dose 360/12 mg, daily dose 660/22 mg; bolus and 2-hr continuous SC administration
Where a SMILES comes first, the peptide text is derived from it. [ ]: non-standard residue; d: D form. Dopa = N[C@@H](Cc1ccc(O)c(O)c1)C(=O)O

>  <Molecule>
N[C@@H](Cc1ccc(O)c(O)c1)C(=O)N[C@@H](Cc1ccc(O)cc1)C(=O)O [LD-Tyr] (H-[Dopa]-Tyr-OH)

>  <Tmax>
54 min

$$$$

----------
Test Name: PK of high concentration LD-Tyr formulations comprising TRIS, 0.5% CD (Example 15B)
Type: in vivo, domestic pig
Test Settings: female, pig, plasma, sc, analyte LD-Tyr; LD-Tyr/CD 30/0.5 % w/v, daily dose 2775/37.5 mg; 18-hour continuous SC infusion; n = 2
Where a SMILES comes first, the peptide text is derived from it. [ ]: non-standard residue; d: D form. Dopa = N[C@@H](Cc1ccc(O)c(O)c1)C(=O)O
Endpoint: Tmax (h)

>  <Compound>
N[C@@H](Cc1ccc(O)c(O)c1)C(=O)N[C@@H](Cc1ccc(O)cc1)C(=O)O [LD-Tyr] (H-[Dopa]-Tyr-OH)

>  <Value Observed>
10

$$$$

----------
Test Name: PK of high concentration LD-Tyr formulations comprising TRIS, 0.5% CD (Example 15B)
Assay type: in vivo, domestic pig
Test Settings: female, pig, plasma, sc, analyte LD-Tyr; LD-Tyr/CD 37/0.5 % w/v, daily dose 2640/30 mg; 18-hour continuous SC infusion; n = 3
Where a SMILES comes first, the peptide text is derived from it. [ ]: non-standard residue; d: D form. Dopa = N[C@@H](Cc1ccc(O)c(O)c1)C(=O)O
Endpoint: Tmax (h)

>  <Molecule>
N[C@@H](Cc1ccc(O)c(O)c1)C(=O)N[C@@H](Cc1ccc(O)cc1)C(=O)O [LD-Tyr] (H-[Dopa]-Tyr-OH)

>  <Value Observed>
15

$$$$
